# targetOrSystem: Mineralocorticoid receptor (Homo sapiens, UniProt P08235)
# Sequence (P08235 whole entry, the tested form may be a part): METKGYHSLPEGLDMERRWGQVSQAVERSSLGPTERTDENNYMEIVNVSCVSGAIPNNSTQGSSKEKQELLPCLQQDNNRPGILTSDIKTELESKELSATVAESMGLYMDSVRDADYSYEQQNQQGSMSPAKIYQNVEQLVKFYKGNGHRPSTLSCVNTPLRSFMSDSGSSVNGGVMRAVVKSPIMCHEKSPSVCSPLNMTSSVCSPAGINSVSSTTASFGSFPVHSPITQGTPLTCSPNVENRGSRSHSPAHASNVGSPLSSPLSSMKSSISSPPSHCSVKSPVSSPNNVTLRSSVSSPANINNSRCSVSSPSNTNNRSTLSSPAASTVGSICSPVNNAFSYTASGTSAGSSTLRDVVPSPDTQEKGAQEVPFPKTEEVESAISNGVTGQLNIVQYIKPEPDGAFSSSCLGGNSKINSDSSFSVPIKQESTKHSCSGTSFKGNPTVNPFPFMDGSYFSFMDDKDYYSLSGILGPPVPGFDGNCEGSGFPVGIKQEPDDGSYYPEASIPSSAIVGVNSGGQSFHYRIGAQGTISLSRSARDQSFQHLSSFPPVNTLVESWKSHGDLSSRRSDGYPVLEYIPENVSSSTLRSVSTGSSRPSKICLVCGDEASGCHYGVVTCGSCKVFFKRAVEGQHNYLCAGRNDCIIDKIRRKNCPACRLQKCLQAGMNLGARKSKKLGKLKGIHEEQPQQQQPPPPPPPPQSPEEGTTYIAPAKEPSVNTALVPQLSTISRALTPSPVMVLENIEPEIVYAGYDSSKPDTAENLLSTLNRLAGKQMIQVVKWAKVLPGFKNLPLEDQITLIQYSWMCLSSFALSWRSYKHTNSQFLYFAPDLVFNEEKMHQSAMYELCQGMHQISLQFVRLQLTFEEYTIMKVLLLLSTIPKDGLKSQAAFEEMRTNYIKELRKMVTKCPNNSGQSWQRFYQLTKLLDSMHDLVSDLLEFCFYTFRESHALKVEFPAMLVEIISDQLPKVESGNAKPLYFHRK
# testDescription: Antagonist activity at Gal4-fused MR LBD (unknown origin) expressed in human Huh7 cells assessed as inhibition of aldosterone-induced transcriptional activity after 3 hrs by luciferase reporter gene assay
# Assay type: cell-based
pIC50: −log10 of the molar value.
quantityMeasured: pIC50

(I) C[C@@H]1CN(c2ccc3c(n2)NC(=O)CO3)CCO1
(II) C[C@@H]1CN(c2ccc3c(c2)NC(=O)CO3)[C@H](c2ccccc2F)CO1
Select the item whose pIC50 value is smaller, choosing between I and II . Field: selected label. Fill in the label of the entry you choose.
I
(I: 5.52, II: 7.48)

====

# targetOrSystem: Androgen receptor (Homo sapiens, UniProt P10275)
# Sequence (P10275 whole entry): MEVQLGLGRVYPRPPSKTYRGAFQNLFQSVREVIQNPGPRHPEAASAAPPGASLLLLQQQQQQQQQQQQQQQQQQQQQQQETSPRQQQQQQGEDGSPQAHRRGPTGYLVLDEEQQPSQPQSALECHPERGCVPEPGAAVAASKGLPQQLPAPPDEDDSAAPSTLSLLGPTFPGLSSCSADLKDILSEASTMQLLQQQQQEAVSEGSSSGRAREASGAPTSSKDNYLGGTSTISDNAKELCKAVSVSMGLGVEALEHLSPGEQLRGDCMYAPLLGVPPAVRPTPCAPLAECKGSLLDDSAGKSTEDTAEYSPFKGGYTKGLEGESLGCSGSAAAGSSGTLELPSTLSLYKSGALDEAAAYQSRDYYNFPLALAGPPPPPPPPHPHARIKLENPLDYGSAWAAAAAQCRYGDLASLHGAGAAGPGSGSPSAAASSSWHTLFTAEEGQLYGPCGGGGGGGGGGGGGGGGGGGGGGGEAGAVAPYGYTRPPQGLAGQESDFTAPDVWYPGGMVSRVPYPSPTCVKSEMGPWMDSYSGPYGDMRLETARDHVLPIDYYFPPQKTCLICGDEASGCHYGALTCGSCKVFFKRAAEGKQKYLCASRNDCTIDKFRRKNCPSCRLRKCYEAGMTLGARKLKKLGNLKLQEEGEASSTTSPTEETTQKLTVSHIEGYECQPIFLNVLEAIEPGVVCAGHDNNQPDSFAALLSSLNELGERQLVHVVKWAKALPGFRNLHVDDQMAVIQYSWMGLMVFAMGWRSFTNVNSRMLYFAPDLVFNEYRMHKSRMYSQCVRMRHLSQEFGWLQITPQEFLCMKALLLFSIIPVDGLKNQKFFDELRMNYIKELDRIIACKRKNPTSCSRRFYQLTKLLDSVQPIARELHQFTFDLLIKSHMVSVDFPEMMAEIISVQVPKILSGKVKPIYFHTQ
# testDescription: Antagonist activity at GAL4-fused human AR LBD (667 to 919 residues) expressed in CHO-K1 cells assessed as inhibition of dihydrotestosterone-induced transactivation activity after 5 to 6 hrs by luciferase reporter gene assay
# Assay type: cell-based
quantityMeasured: IC50 (nM)

{"compoundSmiles": "CCOc1ncc(C)c2c1[C@H](c1ccc(C#N)cc1OC)C(C#N)=C(C)N2", "unitName": "nM", "IC50": 2400}
{"compoundSmiles": "CCOc1nccc2c1[C@H](c1ccc(C#N)cc1OC)C(C#N)=C(C)N2", "unitName": "nM", "IC50": 2800}

====

# testDescription: Clearance in rat
# Type: ADME
# measurementConditions: in vivo
quantityMeasured: clearance (mL/min/kg)

(P) CCC(c1ccc(C(F)(F)F)cc1)(C(O)C(F)F)n1ncc2c(NS(C)(=O)=O)cccc21 (configuration not stated)
(Q) CCC(O)C(CC)(c1ccc(C(F)(F)F)cc1)n1ncc2c(NS(C)(=O)=O)cccc21 (configuration not stated)
Select the item whose clearance value is smaller, choosing between P and Q . Field: selected label. Fill in the label of the entry you choose.
P
